The reported numbers originate from patent US20070066682A1.

Readings of SSAO activity (% relative to benzylamine) Human for the listed compounds
# target_entity: Human SSAO (Homo sapiens, UniProt Q16853)
# Sequence (Q16853 whole entry): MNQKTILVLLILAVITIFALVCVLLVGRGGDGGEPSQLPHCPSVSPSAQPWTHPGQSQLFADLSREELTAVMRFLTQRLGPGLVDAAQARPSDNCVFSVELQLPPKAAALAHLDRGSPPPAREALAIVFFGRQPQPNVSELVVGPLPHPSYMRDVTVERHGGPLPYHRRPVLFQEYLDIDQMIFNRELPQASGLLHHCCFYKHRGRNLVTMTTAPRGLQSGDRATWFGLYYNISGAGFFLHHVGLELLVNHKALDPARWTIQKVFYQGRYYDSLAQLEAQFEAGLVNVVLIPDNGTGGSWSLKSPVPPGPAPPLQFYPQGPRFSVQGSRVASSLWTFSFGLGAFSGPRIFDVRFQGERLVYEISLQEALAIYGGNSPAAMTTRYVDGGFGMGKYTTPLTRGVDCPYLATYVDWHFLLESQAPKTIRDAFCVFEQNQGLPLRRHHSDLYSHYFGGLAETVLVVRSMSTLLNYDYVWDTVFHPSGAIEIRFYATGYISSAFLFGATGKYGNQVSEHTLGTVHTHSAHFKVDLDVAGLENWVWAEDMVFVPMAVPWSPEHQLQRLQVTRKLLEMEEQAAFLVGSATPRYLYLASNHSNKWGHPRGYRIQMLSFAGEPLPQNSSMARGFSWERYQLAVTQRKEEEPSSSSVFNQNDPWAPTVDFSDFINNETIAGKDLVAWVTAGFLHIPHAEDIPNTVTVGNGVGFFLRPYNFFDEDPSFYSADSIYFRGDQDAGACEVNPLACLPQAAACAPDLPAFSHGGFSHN
# test_method_notes: SSAO activity, hydrogen peroxide production relative to benzylamine (human)
# Assay type: biochemical
# condition_description: compound at 1 mM
Answer with a number only, understood to be in %.

Worked set:
NCc1ccc(O)c(Br)c1: 0.00
COc1cccc2[nH]cc(CN)c12: 0.00
COc1cccc(O)c1CN: 0.00

Noted for `Cc1ccc(CN)cc1` : its SSAO activity (% relative to benzylamine) Human reads 0.00

###

# target_entity: mouse SSAO (Mus musculus)
# Sequence (O70423 whole entry): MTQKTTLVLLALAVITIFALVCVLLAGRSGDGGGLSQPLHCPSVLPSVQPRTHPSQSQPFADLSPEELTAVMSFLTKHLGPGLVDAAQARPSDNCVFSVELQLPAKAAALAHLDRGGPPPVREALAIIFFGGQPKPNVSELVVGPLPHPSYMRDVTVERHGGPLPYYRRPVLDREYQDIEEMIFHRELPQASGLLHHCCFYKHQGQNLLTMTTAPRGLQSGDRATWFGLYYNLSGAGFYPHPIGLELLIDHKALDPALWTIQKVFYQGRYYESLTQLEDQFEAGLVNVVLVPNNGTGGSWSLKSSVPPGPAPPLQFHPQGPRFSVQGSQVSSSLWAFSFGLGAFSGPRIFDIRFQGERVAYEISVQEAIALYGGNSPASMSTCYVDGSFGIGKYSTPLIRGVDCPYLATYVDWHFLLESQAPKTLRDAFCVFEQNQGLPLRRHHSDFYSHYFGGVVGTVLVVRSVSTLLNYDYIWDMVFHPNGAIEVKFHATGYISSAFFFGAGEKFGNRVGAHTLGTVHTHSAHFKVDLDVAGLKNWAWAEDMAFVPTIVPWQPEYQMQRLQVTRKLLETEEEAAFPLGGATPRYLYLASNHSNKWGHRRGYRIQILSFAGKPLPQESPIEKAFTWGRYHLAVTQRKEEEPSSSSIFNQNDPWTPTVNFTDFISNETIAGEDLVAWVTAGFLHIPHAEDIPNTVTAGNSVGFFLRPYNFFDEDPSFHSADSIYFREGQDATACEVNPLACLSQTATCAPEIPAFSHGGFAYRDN
# test_method_notes: SSAO activity, hydrogen peroxide production relative to benzylamine (mouse)
# Type: biochemical
# condition_description: compound at 100 μM
One threshold, 4%, splits the recorded SSAO activity (% relative to benzylamine) Mouse values: lower ones are TRUE, equal or higher ones are FALSE.

Worked set:
CC(C)c1ccc(CN)cc1 [Entry 7, (4-isopropylphenyl)methanamine]: TRUE
NCc1ccc(-c2ccccc2)cc1 [Entry 15, biphenyl-4-yl-methanamine]: TRUE
COc1cc(F)cc(CN)c1 [Entry 17, (3-fluoro-5-methoxyphenyl)methanamine]: FALSE

Consider the record given below.
Please determine if CCc1ccc(CN)cc1 [Entry 5] is below 4% in terms of SSAO activity (% relative to benzylamine) Mouse.
FALSE
